Target: cAMP-dependent protein kinase type I-beta regulatory subunit (Homo sapiens) (UniProt P31321)
Sequence (P31321 whole entry): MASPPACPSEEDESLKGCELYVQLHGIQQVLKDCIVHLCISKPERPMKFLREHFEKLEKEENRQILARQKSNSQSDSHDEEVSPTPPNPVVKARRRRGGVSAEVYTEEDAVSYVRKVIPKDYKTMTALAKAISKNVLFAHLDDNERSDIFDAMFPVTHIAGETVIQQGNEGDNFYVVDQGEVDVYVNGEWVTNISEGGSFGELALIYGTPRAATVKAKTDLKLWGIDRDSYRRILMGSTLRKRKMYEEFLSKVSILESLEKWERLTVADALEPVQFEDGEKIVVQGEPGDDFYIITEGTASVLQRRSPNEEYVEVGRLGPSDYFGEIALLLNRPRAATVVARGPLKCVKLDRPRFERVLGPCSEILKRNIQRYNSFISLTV
Assay: Binding affinity to recombinant human full length PKA-R1beta expressed in Escherichia coli BL21 DE3-RIL cells assessed as reduction in interaction with AKAP at 20 nM by fluorescence polarization analysis
Calls of active or inactive are those of the source. The rule behind the calls is not given here.
Quantity kind: Activity

* CC(C)C[C@H](NC(=O)[C@H](C)NC(=O)[C@]1(C)CCC/C=C/CCC[C@](C)(NC(=O)[C@H](CO)NC(=O)[C@@H](NC(=O)[C@H](CC(C)C)NC(=O)[C@H](C)NC(=O)[C@H](CCCCN)NC(=O)[C@H](C)NC(=O)[C@H](CC(C)C)NC(=O)[C@H](CCCCN)NC(=O)[C@H](CCCCN)NC(=O)COCCOCCOCCN)C(C)C)C(=O)N[C@@H](C)C(=O)N[C@@H](CC(C)C)C(=O)N[C@@H](CCCCN)C(=O)N1)C(=O)N[C@@H](CCCCN)C(=O)O | inactive
* CC(C)C[C@H](NC(=O)[C@H](C)NC(=O)[C@]1(C)CCC/C=C/CCC[C@](C)(NC(=O)[C@H](CO)NC(=O)[C@@H](NC(=O)[C@H](CC(C)C)NC(=O)[C@H](Cc2ccccc2)NC(=O)[C@H](CCCCN)NC(=O)[C@H](C)NC(=O)[C@H](CC(C)C)NC(=O)[C@H](CCCCN)NC(=O)[C@H](C)NC(=O)COCCOCCOCCN)C(C)C)C(=O)N[C@@H](C)C(=O)N[C@@H](CC(C)C)C(=O)N[C@@H](CCCCN)C(=O)N1)C(=O)N[C@@H](CCCCN)C(=O)O | inactive
* CC(C)C[C@H](NC(=O)[C@H](C)NC(=O)[C@]1(C)CCC/C=C/CCC[C@](C)(NC(=O)[C@H](CO)NC(=O)[C@@H](NC(=O)[C@H](CC(C)C)NC(=O)[C@H](Cc2ccccc2)NC(=O)[C@H](CCCCN)NC(=O)[C@H](C)NC(=O)[C@H](C)NC(=O)[C@H](CCCCN)NC(=O)[C@H](CCCCN)NC(=O)COCCOCCOCCN)C(C)C)C(=O)N[C@@H](C)C(=O)N[C@@H](CC(C)C)C(=O)N[C@@H](CCCCN)C(=O)N1)C(=O)N[C@@H](CCCCN)C(=O)O | inactive
